Measured Ki accompanies every entry in the list below.
target_or_test_system: Sushi domains (SD1/2) protein
assay_details: Fluorescence polarization (FP) competition assay with AJAP-1probe, calculated Ki
Format: binding
condition_description: Table 9, Ala-, D-amino acids and N-methylation scans of PIANPWT; read-out: Ki (nM) mean ± SEM
Non-standard residues stand in square brackets, D forms with d. Residues, ends and D or L forms follow the SMILES beside them. NMeD = CN[C@@H](CC(=O)O)C(=O)O

compound	units_symbol	Ki
CC[C@H](C)[C@H](NC(=O)[C@H](C)NC(=O)[C@H](Cc1c[nH]c2ccccc12)NC(=O)[C@@H]1CCCN1C(C)=O)C(=O)N[C@H](C(=O)N[C@@H](Cc1c[nH]c2ccccc12)C(=O)NCC(=O)N1CCC[C@H]1C(=O)N[C@H](C(=O)N[C@H](C(=O)N[C@@H](C)C(=O)N[C@@H](CCCNC(=N)N)C(=O)N[C@@H](CCC(=O)O)C(=O)N[C@@H](CC(=O)O)C(N)=O)C(C)C)[C@@H](C)O)C(C)C [PWAIVWGPTVARED] (Ac-PWAIVWGPTVARED-NH2)	nM	480
CC[C@H](C)[C@H](NC(=O)[C@H](C)NC(=O)[C@H](Cc1c[nH]c2ccccc12)NC(=O)[C@@H]1CCCN1C(C)=O)C(=O)N[C@H](C(=O)N[C@@H](Cc1c[nH]c2ccccc12)C(=O)NCC(=O)N1CCC[C@H]1C(=O)N[C@H](C(=O)N[C@H](C(=O)N[C@@H](CO)C(=O)N[C@@H](CCCNC(=N)N)C(=O)N[C@@H](CCC(=O)O)C(=O)N(C)[C@@H](CC(=O)O)C(N)=O)C(C)C)[C@@H](C)O)C(C)C (Ac-PWAIVWGPTVSRE[NMeD]-NH2)	nM	434
CC[C@H](C)[C@H](NC(=O)[C@H](C)NC(=O)[C@H](Cc1c[nH]c2ccccc12)NC(=O)[C@@H]1CCCN1C(C)=O)C(=O)N[C@@H](C)C(=O)N[C@@H](Cc1c[nH]c2ccccc12)C(=O)NCC(=O)N1CCC[C@H]1C(=O)N[C@H](C(=O)N[C@H](C(=O)N[C@@H](CO)C(=O)N[C@@H](CCCNC(=N)N)C(=O)N[C@@H](CCC(=O)O)C(=O)N[C@@H](CC(=O)O)C(N)=O)C(C)C)[C@@H](C)O	nM	1460

* * *

target_or_test_system: Sushi domains (SD1/2) protein
assay_details: Fluorescence polarization (FP) competition assay with AJAP-1probe, calculated Ki
Assay type: binding
condition_description: Table 11, deep mutational scanning validation variants of AJAP-1WT; read-out: Ki (nM) mean ± SEM
Residues, ends and D or L forms follow the SMILES beside them.
quantity: Ki (nM)

compound	target_or_test_system	quantity	units_symbol	quantitative_result
CC[C@H](C)[C@H](NC(=O)[C@H](Cc1ccc(O)cc1)NC(=O)[C@H](CCC(=O)O)NC(=O)[C@@H](NC(=O)[C@H](CCC(=O)O)NC(C)=O)[C@@H](C)O)C(=O)N[C@@H](C)C(=O)N[C@@H](Cc1c[nH]c2ccccc12)C(=O)NCC(=O)N1CCC[C@H]1C(=O)N[C@H](C(=O)NCC(=O)N[C@@H](CC(=O)O)C(=O)N[C@@H](CCC(=O)O)C(=O)N[C@@H](CC(=O)O)C(N)=O)[C@@H](C)O [ETEYIAWGPTGDED, Ac-ETEYIAWGPTGDED-NH2] (Ac-ETEYIAWGPTGDED-NH2)	Sushi domains (SD1/2) protein	Ki	nM	18
